Task for the reader: assign each of the following compounds its reported CC50 at 1 hour.
Assay: Hemolytic assay
Assay type: cell-based
Settings: human, red blood cells; hemolysis; read-out: LC50 Human RBCs
Residues, ends and D or L forms follow the SMILES beside them.
Give bare numbers, in µM.

CC[C@H](C)[C@H](NC(=O)[C@H](CCCCN)NC(=O)[C@H](CCCCN)NC(=O)[C@H](CC(C)C)NC(=O)[C@H](Cc1c[nH]c2ccccc12)NC(=O)[C@H](Cc1c[nH]c2ccccc12)NC(=O)[C@@H](N)Cc1c[nH]c2ccccc12)C(=O)N[C@@H](Cc1c[nH]c2ccccc12)C(N)=O [TetraF2W-KK, WWWLKKIW] (H-WWWLKKIW-NH2; N-terminus and C-terminus assumed)
40

Lab note: measured CC50 at 1 hour of CC[C@H](C)[C@H](NC(=O)[C@H](CCCNC(=N)N)NC(=O)[C@H](CCCCN)NC(=O)[C@H](CC(C)C)NC(=O)[C@H](Cc1c[nH]c2ccccc12)NC(=O)[C@H](Cc1c[nH]c2ccccc12)NC(=O)[C@@H](N)Cc1c[nH]c2ccccc12)C(=O)N[C@@H](Cc1c[nH]c2ccccc12)C(N)=O [TetraF2W-KR, WWWLKRIW] (H-WWWLKRIW-NH2; N-terminus and C-terminus assumed) was 30
